Molecular target: HLA-A*24:02 molecule (Homo sapiens, UniProt P04439, D101N/D140Y/D185E/E176V/E190D/F33S/G103R/G107R/I119L/I121M/I306V/K335N/L105A/L180Q/L300P/N151K/N90K/Q86E/Q94H/R106L/R138H/R89G/T104I/T345S/V100E/W191G/Y123F)
Experiment: Experiment of binding peptide to HLA-A*24:02 molecule (C1R-A24 cells, antibody 17A12, FACS)
Conditions: given as negative numbers (log of Kd value); C1R-A24 cells, on ice 4 hours
pKd: −log10 of the molar value. Ends that are not written are not given here.
PROPERTY NAME: pKd

# example entries with known answers
{"columns": ["RECORD SEQUENCE", "READOUT NUMBER"],
 "data": [
  ["TLAFREGTI [Seq. ID No. 9, TLAFREGTI]", 5.97],
  ["SFFFLSFHI [Seq. ID No. 8, SFFFLSFHI]", 7.07],
  ["AASRYNLTI [Seq. ID No. 5, AASRYNLTI]", 6.15],
  ["STGVSFFFL [Seq. ID No. 10, STGVSFFFL]", 5.17],
  ["AFREGTINV [Seq. ID No. 4, AFREGTINV]", 5.83],
  ["SVPVTRPAL [Seq. ID No. 2, SVPVTRPAL]", 7.24],
  ["LQRDISEMF [Seq. ID No. 6, LQRDISEMF]", 6.65],
  ["HHSDTPTTL [Seq. ID No. 7, HHSDTPTTL]", 5.87]
]}

A = FLGLSNIKF [Seq. ID No. 1, FLGLSNIKF]
B = GVPGWGIAL [Seq. ID No. 3, GVPGWGIAL]
Q: In the pair A and B , the larger recorded pKd belongs to which? // respond with label for picked entry
Result: A

###

Biological target: HLA-A*02:06 molecule (Homo sapiens, UniProt P04439, D140Y/D185E/D98H/E176V/E277Q/F33Y/G131W/G231S/I119V/I121R/I166T/I218V/L300P/L318F/N151K/N90K/P208A/P217A/Q86G/Q94H/R138H/R169H/T345S)
Construct: expressed in transfected cells; host or cells: RA2.6 cells (mouse TAP-deficient RMAS cells carrying HLA-A*02:06 cDNA)
Assay: Experiment of binding peptide to HLA-A*02:06 molecule (RA2.6 cells, antibody BB7.2, flow cytometer)
Details: given as negative numbers (log of Kd value); RA2.6 cells
pKd: −log10 of the molar value. Ends that are not written are not given here.
PROPERTY NAME: pKd

P = FSAQSGAGV [Seq. ID No. 12, FSAQSGAGV]
Q = GQDVTSVPV [Seq. ID No. 11, GQDVTSVPV]
Q: # return whichever of P and Q has the smaller pKd // respond with label for picked entry
Result: P

1 = SVPVTRPAL [Seq. ID No. 2, SVPVTRPAL]
2 = LQRDISEMF [Seq. ID No. 6, LQRDISEMF]
3 = SFFFLSFHI [Seq. ID No. 8, SFFFLSFHI]
4 = TLAFREGTI [Seq. ID No. 9, TLAFREGTI]
5 = STGVSFFFL [Seq. ID No. 10, STGVSFFFL]
Q: Please list these in order of increasing pKd. Thank you! Order the labels as requested and list them.
Result: 4, 3, 2, 5, 1
(4: 3.09, 3: 3.98, 2: 4.26, 5: 5.21, 1: 5.63)

A = FLGLSNIKF [Seq. ID No. 1, FLGLSNIKF]
B = GVPGWGIAL [Seq. ID No. 3, GVPGWGIAL]
Q: In the pair A and B , the larger recorded pKd belongs to which? // respond with label for picked entry
Result: B

###

Biological target: HLA-A*02:01 molecule (Homo sapiens, UniProt P04439, D140Y/D185E/D98H/E176V/E277Q/G131W/G231S/I119V/I121R/I166T/I218V/L300P/L318F/N151K/N90K/P208A/P217A/Q86G/Q94H/R138H/R169H/T345S)
Construct: a cell line T2 (purchased from ATCC) expressing the HLA-A*02:01 molecule; host or cells: T2 cells
Test: Experiment of binding peptide to HLA-A*02:01 molecule (T2 cells, antibody BB7.2, flow cytometer)
Details: given as negative numbers (log of Kd value); T2 cells, 37° C. 4 hours
Ends that are not written are not given here.
PROPERTY NAME: Kd (µM)

{"columns": ["RECORD SEQUENCE", "MEASURE UNIT", "Kd"],
 "data": [
  ["STGVSFFFL [Seq. ID No. 10, STGVSFFFL]", "µM", 7.55],
  ["SVPVTRPAL [Seq. ID No. 2, SVPVTRPAL]", "µM", 125],
  ["FLGLSNIKF [Seq. ID No. 1, FLGLSNIKF]", "µM", 4.07],
  ["AASRYNLTI [Seq. ID No. 5, AASRYNLTI]", "µM", 15.4],
  ["FSAQSGAGV [Seq. ID No. 12, FSAQSGAGV]", "µM", 18.2]
]}

a = GVPGWGIAL [Seq. ID No. 3, GVPGWGIAL]
b = GQDVTSVPV [Seq. ID No. 11, GQDVTSVPV]
Q: In the pair a and b , the larger recorded Kd belongs to which? // respond with label for picked entry
Result: a

###

Molecular target: HLA-A*02:06 molecule (Homo sapiens, UniProt P04439, D140Y/D185E/D98H/E176V/E277Q/F33Y/G131W/G231S/I119V/I121R/I166T/I218V/L300P/L318F/N151K/N90K/P208A/P217A/Q86G/Q94H/R138H/R169H/T345S)
Construct: expressed in transfected cells; host or cells: RA2.6 cells (mouse TAP-deficient RMAS cells carrying HLA-A*02:06 cDNA)
Assay: Experiment of binding peptide to HLA-A*02:06 molecule (RA2.6 cells, antibody BB7.2, flow cytometer)
Details: given as negative numbers (log of Kd value); RA2.6 cells
Ends that are not written are not given here.
PROPERTY NAME: Kd

# example entries with known answers
{"columns": ["RECORD SEQUENCE", "Kd"],
 "data": [
  ["AASRYNLTI [Seq. ID No. 5, AASRYNLTI]", "150 µM"],
  ["HHSDTPTTL [Seq. ID No. 7, HHSDTPTTL]", "> 1000 µM"]
]}

Q: Recall and state the measured Kd for AFREGTINV [Seq. ID No. 4, AFREGTINV] .
Result: > 1000 µM

###

Target: HLA-A*02:01 molecule (Homo sapiens, UniProt P04439, D140Y/D185E/D98H/E176V/E277Q/G131W/G231S/I119V/I121R/I166T/I218V/L300P/L318F/N151K/N90K/P208A/P217A/Q86G/Q94H/R138H/R169H/T345S)
Construct: a cell line T2 (purchased from ATCC) expressing the HLA-A*02:01 molecule; host or cells: T2 cells
Assay: Experiment of binding peptide to HLA-A*02:01 molecule (T2 cells, antibody BB7.2, flow cytometer)
Conditions: given as negative numbers (log of Kd value); T2 cells, 37° C. 4 hours
pKd: −log10 of the molar value. Ends that are not written are not given here.
PROPERTY NAME: pKd

{"columns": ["RECORD SEQUENCE", "pKd"],
 "data": [
  ["HHSDTPTTL [Seq. ID No. 7, HHSDTPTTL]", "< 3.00"],
  ["TLAFREGTI [Seq. ID No. 9, TLAFREGTI]", "< 3.00"],
  ["SFFFLSFHI [Seq. ID No. 8, SFFFLSFHI]", "< 4.00"],
  ["AFREGTINV [Seq. ID No. 4, AFREGTINV]", "< 3.00"]
]}

Continue with the next sequence.
Q: Recall and state the measured pKd for LQRDISEMF [Seq. ID No. 6, LQRDISEMF] .
Result: < 3.00
